B1: ZNF263 (parent)
chain: LLRHQRIHTGERPYKCPECGKSFS

Variants of: B1
test method notes: protein stability index of a GFP-peptide fusion (GPS, HEK-293T) (PSI 1-6); higher = more stable;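 also: lentivirally expressed fusions sorted by FACS into six bins by GFP to DsRed ratio, PSI derived from sequencing read proportions per bin multiplied by bin number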
condition notes: c terminus: a fixed tail appended
I'd appreciate it if you could supply protein stability index values for the items below.
Numbers only.

Please review the following examples before continuing.
mutation notation	protein stability index
F23C	3.29
R3C	2.98

For every record below, what is its protein stability index?
1. S22H
2. S24Y
3. R6D

2.29
2.25
2.78

For every record below, what is its protein stability index?
1. P13W
2. T9K

2.83
2.41

For every record below, what is its protein stability index?
1. H8L
2. S22D
3. E11K
4. C19T
5. G10T
6. H4F
7. R3P
8. T9I

[1.85, 1.63, 2.04, 3.42, 3.22, 1.92, 2.76, 2.53]
